# Test system: CPK1 (P.falciparum)
# assay-procedure: KINOMEscan competition binding
# setup-conditions: compound 10.0 µM
Measured kinase still bound, per cent of control by item
// return numeric value only (unit: %, not printed)

In the examples that follow, each entry is paired with its recorded kinase still bound, per cent of control.
# compound, quantity-measured, result-value
records = [
    ("O=c1[nH]c2ccccc2n1C1CCN(Cc2ccc(-c3nc4cc5[nH]cnc5cc4nc3-c3ccccc3)cc2)CC1", "kinase still bound, per cent of control", 40),
    ("C=CC(=O)Nc1ccc(C(=O)c2sc(Nc3ccc(N4CCN(C)CC4)cc3OC)nc2N)cc1", "kinase still bound, per cent of control", 74),
    ("N#Cc1cc(-c2ccnc(Nc3ccc(-n4cnc(-c5cccnc5)n4)cc3)n2)cc(N2CCOCC2)c1", "kinase still bound, per cent of control", 48),
    ("CCCS(=O)(=O)Nc1ccc(F)c(C(=O)c2c[nH]c3ncc(Cl)cc23)c1F", "kinase still bound, per cent of control", 0),
    ("CCc1nc(-c2cccc(C)c2)c(-c2ccnc(NC(=O)c3ccccc3)c2)s1", "kinase still bound, per cent of control", 22),
    ("CNC(=O)Nc1ccc(-c2nc(N3CC4CCC(C3)O4)c3cnn(C4CCC5(CC4)OCCO5)c3n2)cc1", "kinase still bound, per cent of control", 86),
    ("COc1cc2ncnc(Nc3cccc(Cl)c3)c2cc1OC", "kinase still bound, per cent of control", 34),
    ("CCN1CCN(Cc2ccc(NC(=O)c3ccc(C)c(/C=C/c4cnc5[nH]ccc5c4OC)c3)cc2C(F)(F)F)CC1", "kinase still bound, per cent of control", 0.2),
]

So what does the record say about kinase still bound, per cent of control for COc1cc2c(Nc3ccc(NC(=O)c4ccccc4)cc3)ncnc2cc1OCCCN1CCOCC1 ?
47

Let us now turn to CC1=C(C(=O)Nc2cc3cn[nH]c3cc2F)C(c2ccc(C(F)(F)F)cc2)CC(=O)N1 (stereo not drawn)
82

Let us now turn to CC(=O)c1c(C)c2cnc(Nc3ccc(N4CCNCC4)cn3)nc2n(C2CCCC2)c1=O
46

Let us now turn to N#C/C(=C1/Nc2ccccc2S1)c1ccnc(NCCc2cccnc2)n1
4.2

Let us now turn to CCN(CCO)CCCOc1ccc2c(Nc3cc(CC(=O)Nc4cccc(F)c4)[nH]n3)ncnc2c1
63
